The reported numbers originate from the supplement of paper PMC3545927.

Provide the reported furin cleavage Z-score of each item.
biological target: furin, P09958; experiment: furin cleavage Z-score vs untreated control; higher = more cleavage, active = 3.5 or more, inactive = 1 or less, 8 variable residues between constant flanks; details: 15 min;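 note: purified furin at 1:10 enzyme:substrate in 50 mM HEPES pH 7.5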
Sequence (P09958 whole entry): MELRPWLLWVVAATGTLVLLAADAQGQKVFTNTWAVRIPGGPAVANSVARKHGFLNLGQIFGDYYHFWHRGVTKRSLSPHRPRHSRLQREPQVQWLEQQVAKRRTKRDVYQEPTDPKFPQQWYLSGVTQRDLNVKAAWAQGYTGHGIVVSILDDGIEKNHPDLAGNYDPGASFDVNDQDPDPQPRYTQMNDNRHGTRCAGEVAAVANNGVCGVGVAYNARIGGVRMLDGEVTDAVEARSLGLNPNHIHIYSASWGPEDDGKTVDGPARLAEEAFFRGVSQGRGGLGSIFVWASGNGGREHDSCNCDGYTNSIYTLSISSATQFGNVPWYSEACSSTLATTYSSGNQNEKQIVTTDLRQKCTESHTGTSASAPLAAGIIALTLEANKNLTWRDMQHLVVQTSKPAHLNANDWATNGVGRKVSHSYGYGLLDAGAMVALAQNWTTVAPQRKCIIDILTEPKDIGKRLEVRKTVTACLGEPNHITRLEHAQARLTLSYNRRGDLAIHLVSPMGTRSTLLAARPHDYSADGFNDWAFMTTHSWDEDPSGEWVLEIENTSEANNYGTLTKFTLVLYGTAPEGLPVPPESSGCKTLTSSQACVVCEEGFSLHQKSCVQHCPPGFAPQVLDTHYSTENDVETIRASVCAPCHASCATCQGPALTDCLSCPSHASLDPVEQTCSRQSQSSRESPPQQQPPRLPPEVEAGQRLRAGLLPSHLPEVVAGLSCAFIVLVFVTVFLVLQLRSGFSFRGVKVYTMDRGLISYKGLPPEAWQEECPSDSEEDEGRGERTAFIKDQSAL
The other results are listed elsewhere or left out. No count for the full screen is at hand.
One number for each entry.

Here's what some known entries look like.
{"QUERY_SEQUENCE": "CASLEVVTSTAGNASASA [HC2277]", "furin cleavage Z-score": -0.0293}
{"QUERY_SEQUENCE": "CARDQRSVLAAGNASASA [FS-2206]", "furin cleavage Z-score": -0.365}
{"QUERY_SEQUENCE": "CANYATGNLPAGNASASA [HC242]", "furin cleavage Z-score": 0.727}
{"QUERY_SEQUENCE": "CAEMVVCCSMAGNASASA [HC2126]", "furin cleavage Z-score": -1.21}
{"QUERY_SEQUENCE": "CAAGLFYHHKAGNASASA [HC380]", "furin cleavage Z-score": -0.406}

I have 2 sequences here; please give me furin cleavage Z-score for each one.
1. CAQRDRQKRRAGNASASA [FS-558]
2. CASWGRVWRAAGNASASA [FS-1420]

[reply]
1: 9.96; 2: -1.01
